In what follows, each item is paired with its pKi for human D2short receptor (Homo sapiens).
One number for each entry, as −log10 of the molar value.

>  <ITEM_SMILES>
COc1ccccc1N1CCN(CCCCNC(=O)c2cc3cc(C#N)ccc3o2)CC1

>  <REPORTED_VALUE>
7.05

$$$$
>  <ITEM_SMILES>
COc1ccccc1N1CCN(CCCCNC(=O)c2cc3cc(Br)ccc3o2)CC1

>  <REPORTED_VALUE>
7.21

$$$$
>  <ITEM_SMILES>
O=C(NCCCCN1CCN(c2cccc(Cl)c2Cl)CC1)c1cc2ccccc2[te]1

>  <REPORTED_VALUE>
7.32

$$$$

Would you kindly look at the next entry?
Requested read-out pKi, target or system human D2short receptor (Homo sapiens), entry "O=C(NCCCCN1CCN(c2cccc(Cl)c2Cl)CC1)c1cc2cc(Br)ccc2o1" 5.32

---

Provide the recorded Ki for the entries that follow.
# MEASUREMENT_TARGET: UniProtKB A0A4X1UTF5
# Sequence (A0A4X1UTF5 1-422): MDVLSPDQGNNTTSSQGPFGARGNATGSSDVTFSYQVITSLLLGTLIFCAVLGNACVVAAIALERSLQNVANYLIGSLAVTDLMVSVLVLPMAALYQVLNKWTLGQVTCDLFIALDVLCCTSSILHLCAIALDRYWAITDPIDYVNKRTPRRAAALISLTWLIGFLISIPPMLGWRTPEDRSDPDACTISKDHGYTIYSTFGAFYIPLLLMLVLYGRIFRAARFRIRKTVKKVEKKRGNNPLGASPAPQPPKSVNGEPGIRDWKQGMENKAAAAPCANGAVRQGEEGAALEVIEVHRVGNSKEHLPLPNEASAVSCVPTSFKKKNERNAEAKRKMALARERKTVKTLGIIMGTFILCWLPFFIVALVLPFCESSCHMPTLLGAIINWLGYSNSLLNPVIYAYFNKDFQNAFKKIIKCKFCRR
# ASSAY_OVERVIEW: radio ligand binding, pig cortex membrane preparations, [3H]8-OH-DPAT
Give bare numbers, in nM.

>  <ITEM_SMILES>
COc1ccccc1N1CCN(CCCCNC(=O)c2cc3ccc(C#N)cc3[nH]2)CC1

>  <MEASUREMENT_TARGET>
UniProtKB A0A4X1UTF5

>  <REPORTED_VALUE>
47

$$$$
>  <ITEM_SMILES>
COc1ccccc1N1CCN(CCCCNC(=O)c2cc3ccccc3[nH]2)CC1

>  <MEASUREMENT_TARGET>
UniProtKB A0A4X1UTF5

>  <REPORTED_VALUE>
32

$$$$

# batch size: 5; output Ki per entry
1. COc1ccccc1N1CCN(CCCCNC(=O)c2cc3cc(C#N)ccc3[nH]2)CC1
2. COc1ccccc1N1CCN(CCCCNC(=O)c2cc3ccc(C#N)cc3s2)CC1
3. COc1ccccc1N1CCN(CCCCNC(=O)c2cc3cc(C#N)ccc3o2)CC1
4. COc1ccccc1N1CCN(CCCCNC(=O)c2cc3ccccc3[te]2)CC1
5. N#Cc1ccc2cc(C(=O)NCCCCN3CCN(c4cccc(Cl)c4Cl)CC3)sc2c1

83
71
37
69
110

---

# MEASUREMENT_TARGET: α1 receptors
# ASSAY_OVERVIEW: competitive experiment with the α1 selective radio ligand [3H]Prazosin
# CONDITION: read-out: Ki values α1 (footnote d); pα1; competitive experiment with [3H]Prazosin
pKi: −log10 of the molar value.
// label = Fulfilled if pKi is not less than 8, otherwise Not fulfilled

Determine whether this compound has pKi no lower than 8: "N#Cc1ccc2cc(C(=O)NCCCCN3CCN(c4cccc(Cl)c4Cl)CC3)[nH]c2c1" Not fulfilled

Tell me whether pKi is at least 8 here: "COc1ccccc1N1CCN(CCCCNC(=O)c2cc3ccccc3o2)CC1" Fulfilled

Decide: is the reported value of pKi for "N#Cc1ccc2sc(C(=O)NCCCCN3CCN(c4cccc(Cl)c4Cl)CC3)cc2c1" equal to or greater than 8? Not fulfilled

Decide: pKi of "O=C(NCCCCN1CCN(c2cccc(Cl)c2Cl)CC1)c1cc2ccccc2[nH]1" >= 8? Not fulfilled

Hello, I need to know if "COc1ccccc1N1CCN(CCCCNC(=O)c2cc3ccc(C#N)cc3[nH]2)CC1" has measured pKi not below 8. Thanks! Fulfilled

# bool: pKi of "COc1ccccc1N1CCN(CCCCNC(=O)c2cc3cc(Br)ccc3o2)CC1" >= 8 Fulfilled

---

I'd appreciate it if you could supply Ki values for the items below.
# MEASUREMENT_TARGET: UniProt:P35462
# Sequence (P35462 whole entry): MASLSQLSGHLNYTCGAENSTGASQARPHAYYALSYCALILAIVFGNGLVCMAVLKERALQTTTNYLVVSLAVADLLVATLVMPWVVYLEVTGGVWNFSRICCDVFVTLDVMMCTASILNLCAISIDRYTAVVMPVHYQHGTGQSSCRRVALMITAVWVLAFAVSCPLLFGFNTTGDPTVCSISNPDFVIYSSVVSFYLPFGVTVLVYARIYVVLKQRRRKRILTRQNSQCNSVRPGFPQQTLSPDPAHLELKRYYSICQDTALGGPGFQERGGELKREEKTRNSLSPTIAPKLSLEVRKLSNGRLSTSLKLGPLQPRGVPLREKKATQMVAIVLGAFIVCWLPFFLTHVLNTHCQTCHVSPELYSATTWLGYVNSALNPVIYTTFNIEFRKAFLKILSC
# ASSAY_OVERVIEW: radio ligand binding assay, CHO cell membrane homogenates, [3H]Spiperon, D3
# Parameters: expressed in transfected cells; host or cells: CHO cells (membrane homogenates)
# CONDITION: hD3; average of 2-9 experiments in triplicate; read-out: Ki-values D3

Use the examples below as a reference point.
>  <ITEM_SMILES>
O=C(NCCCCN1CCN(c2cccc(Cl)c2Cl)CC1)c1cc2cc(Br)ccc2o1

>  <REPORTED_VALUE>
3400 pM

$$$$
>  <ITEM_SMILES>
N#Cc1ccc2cc(C(=O)NCCCCN3CCN(c4cccc(Cl)c4Cl)CC3)sc2c1

>  <REPORTED_VALUE>
230 to 570 pM

$$$$

Let us examine a further case.
Please state recorded Ki (tested on UniProt:P35462) of "O=C(NCCCCN1CCN(c2cccc(Cl)c2Cl)CC1)c1cc2ccccc2[nH]1" 230 to 570 pM

---

Provide the reported Ki of each item.
# MEASUREMENT_TARGET: α1 receptors
# ASSAY_OVERVIEW: competitive experiment with the α1 selective radio ligand [3H]Prazosin
# CONDITION: read-out: Ki values α1 (footnote d); pα1; competitive experiment with [3H]Prazosin
Numbers only, in nM.

>  <COMPOUND>
O=C(NCCCCN1CCN(c2cccc(Cl)c2Cl)CC1)c1cc2ccccc2o1 [Example 4]

>  <EXPERIMENTAL_ENDPOINT>
Ki

>  <MEASUREMENT_UNITS>
nM

>  <REPORTED_VALUE>
160

$$$$

Batch of 4 compounds: report Ki for each.
1. N#Cc1ccc2cc(C(=O)NCCCCN3CCN(c4cccc(Cl)c4Cl)CC3)sc2c1 [Example 21]
2. COc1ccccc1N1CCN(CCCCNC(=O)c2cc3ccccc3[nH]2)CC1 [Example 24]
3. COc1ccccc1N1CCN(CCCCNC(=O)c2cc3cc(Br)ccc3s2)CC1 [Example 22]
4. COc1ccccc1N1CCN(CCCCNC(=O)c2cc3cc(C#N)ccc3o2)CC1 [Example 7]

1: 45; 2: 7.3; 3: 2.5; 4: 11

---

Dear all, this message contains pKi results, target or system human D2long receptor (Homo sapiens, UniProt P14416).
One number for each entry, as −log10 of the molar value.

>  <ITEM_SMILES>
O=C(NCCCCN1CCN(c2cccc(Cl)c2Cl)CC1)c1cc2ccccc2[te]1

>  <EXPERIMENTAL_ENDPOINT>
pKi

>  <REPORTED_VALUE>
7.04

$$$$
>  <ITEM_SMILES>
COc1ccccc1N1CCN(CCCCNC(=O)c2cc3cc(C#N)ccc3o2)CC1

>  <EXPERIMENTAL_ENDPOINT>
pKi

>  <REPORTED_VALUE>
6.89

$$$$
>  <ITEM_SMILES>
COc1ccccc1N1CCN(CCCCNC(=O)c2cc3cc(Br)ccc3o2)CC1

>  <EXPERIMENTAL_ENDPOINT>
pKi

>  <REPORTED_VALUE>
7.02

$$$$

Please find the next compound below.
Recorded pKi for "O=C(NCCCCN1CCN(c2cccc(Cl)c2Cl)CC1)c1cc2cc(Br)ccc2o1" with human D2long receptor (Homo sapiens, UniProt P14416), please? 5.00

---

# MEASUREMENT_TARGET: serotonin receptor 5-HT2 (Sus scrofa)
# Sequence (P50129 whole entry): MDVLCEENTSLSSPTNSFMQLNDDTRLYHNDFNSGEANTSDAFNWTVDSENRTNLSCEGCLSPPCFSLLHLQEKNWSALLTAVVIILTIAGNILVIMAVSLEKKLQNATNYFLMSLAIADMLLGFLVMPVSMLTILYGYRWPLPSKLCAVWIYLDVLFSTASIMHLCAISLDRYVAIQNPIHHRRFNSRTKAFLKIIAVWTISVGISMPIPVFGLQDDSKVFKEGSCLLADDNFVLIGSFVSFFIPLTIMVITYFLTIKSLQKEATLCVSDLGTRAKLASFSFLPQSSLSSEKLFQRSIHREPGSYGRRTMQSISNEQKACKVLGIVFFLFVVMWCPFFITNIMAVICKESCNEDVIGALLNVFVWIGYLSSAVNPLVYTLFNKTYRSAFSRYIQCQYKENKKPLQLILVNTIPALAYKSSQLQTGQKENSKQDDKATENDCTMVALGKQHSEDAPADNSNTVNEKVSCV
Decide using Ki alone. Strictly below 600 nM: T. Equal to or above 600 nM: F.

>  <ITEM_SMILES>
COc1ccccc1N1CCN(CCCCNC(=O)c2cc3cc(Br)ccc3[nH]2)CC1

>  <ASSIGNED_CATEGORY>
T

$$$$

Moving on to another compound below.
# strict comparison: is reported Ki < 600 nM? input = "O=C(NCCCCN1CCN(c2cccc(Cl)c2Cl)CC1)c1cc2ccccc2[te]1" F

---

For each record, write down the corresponding pKi.
# MEASUREMENT_TARGET: human D4.4 receptor (Homo sapiens)
# Construct: expressed in transfected cells; host or cells: CHO cells (membrane homogenates)
# Sequence (P21917 1-419): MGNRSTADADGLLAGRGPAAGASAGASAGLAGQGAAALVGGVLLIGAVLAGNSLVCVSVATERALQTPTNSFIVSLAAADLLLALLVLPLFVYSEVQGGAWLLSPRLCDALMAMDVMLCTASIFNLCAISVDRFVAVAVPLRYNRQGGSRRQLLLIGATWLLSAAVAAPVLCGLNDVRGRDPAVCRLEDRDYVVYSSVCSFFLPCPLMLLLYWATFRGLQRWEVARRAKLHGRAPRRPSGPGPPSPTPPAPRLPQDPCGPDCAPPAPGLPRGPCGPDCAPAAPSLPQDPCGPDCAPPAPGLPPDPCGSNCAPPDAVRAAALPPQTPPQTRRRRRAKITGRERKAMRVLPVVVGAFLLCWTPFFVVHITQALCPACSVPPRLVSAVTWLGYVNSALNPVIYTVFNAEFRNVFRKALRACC
# ASSAY_OVERVIEW: radio ligand binding assay, CHO cell membrane homogenates, [3H]Spiperon, D4.4
# CONDITION: hD4.4; average of 2-9 experiments in triplicate
Numbers only, as −log10 of the molar value.

>  <ITEM_SMILES>
COc1ccccc1N1CCN(CCCCNC(=O)c2cc3cc(Br)ccc3o2)CC1

>  <EXPERIMENTAL_ENDPOINT>
pKi

>  <REPORTED_VALUE>
7.77

$$$$
>  <ITEM_SMILES>
O=C(NCCCCN1CCN(c2cccc(Cl)c2Cl)CC1)c1cc2cc(Br)ccc2o1

>  <EXPERIMENTAL_ENDPOINT>
pKi

>  <REPORTED_VALUE>
5.51

$$$$
>  <ITEM_SMILES>
COc1ccccc1N1CCN(CCCCNC(=O)c2cc3ccccc3o2)CC1

>  <EXPERIMENTAL_ENDPOINT>
pKi

>  <REPORTED_VALUE>
7.52

$$$$
>  <ITEM_SMILES>
COc1ccccc1N1CCN(CCCCNC(=O)c2cc3cc(C#N)ccc3o2)CC1

>  <EXPERIMENTAL_ENDPOINT>
pKi

>  <REPORTED_VALUE>
7.24

$$$$

Query compound follows.
// query pKi value for entry "O=C(NCCCCN1CCN(c2cccc(Cl)c2Cl)CC1)c1cc2ccccc2[te]1" 6.82
